pIC50: −log10 of the molar value. Counter-ions that a name gives are not always drawn.
pIC50 values recorded for c-fms (Homo sapiens (Human))
Assay endpoint: pIC50

CC1(C)CC=C(c2cc(C3=C[C@@H]4C=C[C@H](C3)O4)ccc2NC(=O)c2ncc(C#N)[nH]2)CC1 [Example 26] | 8.15

[P] CC1(C)CC=C(c2nc([C@H]3C[C@@]4(C)O[C@@](C)(C3)[C@@H]3OC(C)(C)O[C@@H]34)ccc2NC(=O)c2nc(C#N)c[nH]2)CC1 [Example 17]
[Q] CC1(C)CC=C(c2nc(C3C[C@@]4(C)O[C@@](C)(C3)[C@H](O)[C@@H]4O)ccc2NC(=O)c2nc(C#N)c[nH]2)CC1 (stereo partly drawn) [Example 18, trifluoroacetic acid salt]
Could you tell me which of P and Q has the lower pIC50 reading? Use the label to indicate which entry you chose.
P

Values were extracted from patent US8497376B2.
